IC50 reference
Target: BTK-WT (Homo sapiens)
Construct: purified from insect cells as a full-length construct containing an N-terminal 6X-His tag; His6 (N); made in house; host or cells: insect cells (baculovirus Sf21 in Method B)
Sequence (Q06187 whole entry): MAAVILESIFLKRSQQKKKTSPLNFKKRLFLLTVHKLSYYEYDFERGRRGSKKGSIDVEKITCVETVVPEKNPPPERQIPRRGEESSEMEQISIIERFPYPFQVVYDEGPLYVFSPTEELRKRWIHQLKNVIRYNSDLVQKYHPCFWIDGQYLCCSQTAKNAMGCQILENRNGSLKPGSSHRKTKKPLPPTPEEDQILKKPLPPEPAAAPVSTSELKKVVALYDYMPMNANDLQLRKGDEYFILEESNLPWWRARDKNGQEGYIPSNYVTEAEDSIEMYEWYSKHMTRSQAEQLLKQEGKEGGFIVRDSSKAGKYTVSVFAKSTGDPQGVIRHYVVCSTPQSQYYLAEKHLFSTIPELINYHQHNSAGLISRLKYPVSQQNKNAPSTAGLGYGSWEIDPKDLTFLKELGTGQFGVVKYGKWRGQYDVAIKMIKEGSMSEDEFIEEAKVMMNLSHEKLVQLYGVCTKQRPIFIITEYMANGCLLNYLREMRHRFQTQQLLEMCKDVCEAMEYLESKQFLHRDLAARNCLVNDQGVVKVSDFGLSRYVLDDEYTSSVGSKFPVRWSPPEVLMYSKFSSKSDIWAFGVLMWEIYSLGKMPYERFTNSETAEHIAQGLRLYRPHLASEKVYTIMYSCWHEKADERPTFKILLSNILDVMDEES
Assay: Btk in vitro inhibitory activity (one of Method A TR-FRET, Method B electrophoretic mobility shift, Method C radiometric filter binding)
Type: biochemical
Details: D-compounds panel data; read-out: IC50 BTK-WT
parameter_measured: IC50

{"sample_smiles": "Cc1cc(Nc2nc(N3CCC[C@@H](NC(=O)c4ccc(C(C)(C)O)cc4)C3)cnc2C(N)=O)sn1", "parameter_measured": "IC50", "measurement": "≤ 10 nM"}
{"sample_smiles": "C[C@@H]1[C@H](NC(=O)c2ccc(C3CC3)cc2)CCCN1c1cnc(C(N)=O)c(Nc2cnn(-c3ccncc3)c2)n1", "parameter_measured": "IC50", "measurement": "≤ 10 nM"}
{"sample_smiles": "C[C@@H]1[C@H](NC(=O)c2ccc(C3CC3)cc2)CCCN1c1cnc(C(N)=O)c(Nc2ccc(N3CCC(F)(F)CC3)cc2)n1", "parameter_measured": "IC50", "measurement": "10 to 100 nM"}
{"sample_smiles": "CN1CCN(C(=O)c2ccc(Nc3nc(N[C@H]4CC[C@@H](NC(=O)N(C)C)CC4)cnc3C(N)=O)cc2)CC1", "parameter_measured": "IC50", "measurement": "10 to 100 nM"}
{"sample_smiles": "C[C@@H]1[C@H](NC(=O)N(C)C)CCCN1c1cnc(C(N)=O)c(Nc2cc(CN3CCOCC3)ns2)n1", "parameter_measured": "IC50", "measurement": "≤ 10 nM"}
{"sample_smiles": "Cc1ncc(Nc2nc(N3CCC[C@@H](NC(=O)c4ccc(C5CC5)cc4)[C@H]3C)cnc2C(N)=O)s1", "parameter_measured": "IC50", "measurement": "≤ 10 nM"}
{"sample_smiles": "C[C@@H]1[C@H](NC(=O)c2cnn(C(C)(C)C)c2)CCCN1c1cnc(C(N)=O)c(Nc2cnn(C)c2)n1", "parameter_measured": "IC50", "measurement": "≤ 10 nM"}

* * *

Some molecules, each annotated with its measured IC50.
Target: EGFR (Homo sapiens, UniProt P00533)
Sequence (P00533 25-1210): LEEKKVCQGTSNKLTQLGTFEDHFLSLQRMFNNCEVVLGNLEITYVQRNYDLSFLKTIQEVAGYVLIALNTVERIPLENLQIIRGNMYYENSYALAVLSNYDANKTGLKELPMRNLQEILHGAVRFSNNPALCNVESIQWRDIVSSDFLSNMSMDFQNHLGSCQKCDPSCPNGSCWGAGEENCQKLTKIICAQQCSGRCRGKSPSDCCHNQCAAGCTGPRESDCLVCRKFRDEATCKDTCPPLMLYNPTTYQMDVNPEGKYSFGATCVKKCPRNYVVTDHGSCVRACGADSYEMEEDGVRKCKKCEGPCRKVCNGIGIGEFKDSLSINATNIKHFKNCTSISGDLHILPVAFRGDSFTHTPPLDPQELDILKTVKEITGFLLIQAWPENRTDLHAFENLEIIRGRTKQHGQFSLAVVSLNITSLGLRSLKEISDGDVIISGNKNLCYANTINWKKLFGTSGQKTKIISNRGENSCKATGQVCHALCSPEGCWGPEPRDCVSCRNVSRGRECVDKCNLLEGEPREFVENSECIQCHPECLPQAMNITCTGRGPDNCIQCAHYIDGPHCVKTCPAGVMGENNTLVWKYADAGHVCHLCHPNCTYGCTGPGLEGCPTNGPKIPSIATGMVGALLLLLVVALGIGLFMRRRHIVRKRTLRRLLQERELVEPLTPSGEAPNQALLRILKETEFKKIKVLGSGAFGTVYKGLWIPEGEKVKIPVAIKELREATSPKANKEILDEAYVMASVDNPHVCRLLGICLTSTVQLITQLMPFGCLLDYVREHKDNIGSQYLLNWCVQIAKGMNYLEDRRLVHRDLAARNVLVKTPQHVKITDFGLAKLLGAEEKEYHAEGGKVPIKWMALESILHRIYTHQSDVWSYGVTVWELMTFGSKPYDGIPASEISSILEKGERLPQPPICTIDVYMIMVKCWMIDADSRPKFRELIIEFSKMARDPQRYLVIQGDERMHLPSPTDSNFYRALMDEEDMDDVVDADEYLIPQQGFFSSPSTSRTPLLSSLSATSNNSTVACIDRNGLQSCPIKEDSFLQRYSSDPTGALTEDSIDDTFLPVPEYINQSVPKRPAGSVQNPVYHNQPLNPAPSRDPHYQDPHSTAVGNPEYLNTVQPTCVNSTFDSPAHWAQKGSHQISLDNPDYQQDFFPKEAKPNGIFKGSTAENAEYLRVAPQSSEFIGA
Experiment: Inhibition of a panel of kinases, in vitro HotSpot kinase assay: EGFR
Format: biochemical
Conditions: D-compounds panel data; 1 μM ATP
parameter_measured: IC50

{"molecule": "C[C@@H]1[C@H](NC(=O)c2ccc(C3CC3)cc2)CCCN1c1cnc(C(N)=O)c(Nc2cnn(CCO)c2)n1 [Example D-281]", "subject_of_test": "EGFR (Homo sapiens, UniProt P00533)", "parameter_measured": "IC50", "measurement": "1 to 10 µM"}
{"molecule": "C[C@@H]1[C@H](NC(=O)c2ccc(C3CC3)cc2F)CCCN1c1cnc(C(N)=O)c(Nc2ccc(C3(C)CCN(C4CCCC4)CC3)cc2)n1 [Example D-66]", "subject_of_test": "EGFR (Homo sapiens, UniProt P00533)", "parameter_measured": "IC50", "measurement": "0.01 to 0.1 µM"}
{"molecule": "CN1CCN([C@@H]2CCCN(c3cnc(C(N)=O)c(Nc4cnn(C)c4)n3)C2)C1=O [Example D-209]", "subject_of_test": "EGFR (Homo sapiens, UniProt P00533)", "parameter_measured": "IC50", "measurement": "> 10 µM"}
{"molecule": "C[C@@H]1[C@H](NC(=O)c2ccc(C3CC3)cc2F)CCCN1c1cnc(C(N)=O)c(Nc2ccn(C)n2)n1 [Example D-129]", "subject_of_test": "EGFR (Homo sapiens, UniProt P00533)", "parameter_measured": "IC50", "measurement": "1 to 10 µM"}
{"molecule": "C[C@H]1CC[C@@H](NC(=O)c2ccc(C3CC3)cc2)CN1c1cnc(C(N)=O)c(Nc2ccc(N3CCN(C)CC3)cc2)n1 [Example D-154]", "subject_of_test": "EGFR (Homo sapiens, UniProt P00533)", "parameter_measured": "IC50", "measurement": "> 10 µM"}
{"molecule": "CCOCCOc1ccc(Nc2nc(N3CCC[C@@H](NC(=O)c4ccc(C5CC5)cc4)[C@H]3C)cnc2C(N)=O)cc1 [Example D-299]", "subject_of_test": "EGFR (Homo sapiens, UniProt P00533)", "parameter_measured": "IC50", "measurement": "> 10 µM"}
{"molecule": "CC(C)c1ccc(C(=O)N[C@@H]2CCCN(c3cnc(C(N)=O)c(Nc4cnn(C)c4)n3)C2)cc1 [Example D-222]", "subject_of_test": "EGFR (Homo sapiens, UniProt P00533)", "parameter_measured": "IC50", "measurement": "> 10 µM"}
